Ref: paper PMC8321240

tested on: automated midbrain organoids (AMOs); assay: Viability of 3D AMOs (CellTiter-Glo 3D) in the 2D vs 3D comparison; type: cell-based, human; conditions: Homo sapiens, AMO line 2, 3D, 48 h exposure from day 50
VALUE_KIND: pIC50
Give bare numbers, as −log10 of the molar value.

Cl[C@H]1[C@H](Cl)[C@@H](Cl)[C@@H](Cl)[C@H](Cl)[C@H]1Cl: 3.89

// moving on: another record for pIC50
Note to self: pIC50 recorded for Cl.NCCc1cc(O)c(O)cc1O [6OHDA, 6-hydroxydopamine hydrochloride, reference compound] was 3.57

---

Tested on: TH+ dopaminergic and Map2+ general neurons in AMOs
Assay: Dose-response analysis, TH and Map2 content by high content imaging
Assay type: cell-based, human
Conditions: 0.01-1,000 μM (rotenone up to 100 μM), 48 h + 6 days, both AMO lines
Description: All processing steps were conducted in an HTS-compatible automated liquid handling system (ALHS, a Biomek FXP liquid handling station). To quantify different cellular subpopulations within the AMOs, we employed our previously described (Renner et al., [2020], [2021b]) ALHS-compatible workflow for combined whole-mount staining and clearing, with minor modifications. […]
VALUE_KIND: TH content (dopaminergic neurons)

COc1ccc2cc3[n+](cc2c1OC)CCc1cc2c(cc1-3)OCO2 [BC, berberine chloride]: strongly reduced
CC(C)(c1cc(Br)c(O)c(Br)c1)c1cc(Br)c(O)c(Br)c1: strongly reduced
Oc1c(Cl)cc(Cl)c(Cl)c1Cc1c(O)c(Cl)cc(Cl)c1Cl: strongly reduced
